// provenance: patent US20200010567A1

Biological target: T1, (GP)15: H-C(GP)15-OH
T1 construct: synthetic, not coupled to BSA; also called poly-GP DPR protein peptide
T1 peptide: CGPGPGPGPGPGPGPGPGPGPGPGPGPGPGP
Assay: indirect ELISA, coated peptide
ENDPOINT NAME: binding result

NI-308.6B11 (antibody, V domains shown, Recombinant complete human IgG1, kappa) VH: EVQLVQSGAEVKRPGASVKVSCKVSGYTLTELSMHWVRQAPGKGLEWMGGFDPEDGETVYAQKFQGRVTMTEDTSTDTAYMELSSLRSEDTALYHCATYGSSWHWNEGNEGSYYFDYWGQGTLVTVSS VL: CDIQMTQSPSSLSASVGDRVTITCQASQDISIYLNWYQQKPGKAPKLLIYDASNLETGVPSRFSGSGSGTDFTFTISGLQPEDVARYYCQQYDDLPITFGQGTRLEIK = no binding
NI-308.24E11 (antibody, V domains shown, Recombinant complete human IgG1, kappa) VH: QVQLQESGPGLVKPSETLSLTCTVSTTSLRSYFWSWIRQPPGKGLEWIGYVYYSGSTIYNPSLKNRVTISIDTSKNQFSLNLRSVTAADTAMYFCARGVPAETDARDFPPYYFDHWGQGTLVTVSS VL: CDIQLTQSPSSLSASVGNRITFTCQASQDIRYYLNWYQQKPGKAPKLLIYDVSNLDTGVPPRFSGSGSGTNFTFTISSLQPEDIAVYYCQQYEGLPVTFGGGTKVEIK = no binding
NI-308.18F7 (antibody, V domains shown, Recombinant complete human IgG1, kappa) VH: QVQLQESGPGLVKPSETLSVTCTVSGGSINDYYWNWIRQPAGKGLEWIGRIYASGTINYNPSLQSRVTMSIDTSKNQFSLDLISVSAADTAVYYCARWGQVVGDYYYGMDVWGQGTTVTVSS VL: EIVLTQSPLSLSVTPGEPASISCKSSQSLQHTNGYNYLDWYLLKPGQSPQLLIFLTSNRASGVPDRFSGSGSGTNFTLKISRVEAEDVGVYYCMEGIQLWTFGQGTKLEIK = no binding
